- system.name: T1, Anti-PSMA Fab
- T1 construct: Biotinylated and captured on neutravidin coated plates in the phage ELISA; also called 006 PSMA Fab
- assay.remarks: phage binding ELISA; clonal phage supernatant on biotinylated anti-PSMA Fab captured on neutravidin plate; anti-M13-HRP detection
Record form. Attribute: Phage binding ELISA signal, Anti-PSMA Fab. Fill in for each entry.
One number for each entry.

Check out these entries, answers already filled in.
{"binder": "GMGMCVPTWMCTGM (Tested as clonal phage supernatant) [Phage-3579 (Peptide-180 library clone)]", "endpoint.result": 1.62}
{"binder": "PSPICRPEWMCVWL (Tested as clonal phage supernatant) [Phage-3584 (Peptide-180 library clone)]", "endpoint.result": 1.61}
{"binder": "ESHLCRPAWMCTGF (Tested as clonal phage supernatant) [Phage-3588 (Peptide-180 library clone)]", "endpoint.result": 1.6}
{"binder": "NIMRCQPSWMCTGF (Tested as clonal phage supernatant) [Phage-3583 (Peptide-180 library clone)]", "endpoint.result": 1.61}
{"binder": "QLAMCVPLWMCYGF (Tested as clonal phage supernatant) [Phage-3580 (Peptide-180 library clone)]", "endpoint.result": 1.62}

Q: Identify measured Phage binding ELISA signal, Anti-PSMA Fab associated with TFMRCEPVWMCDGF (Tested as clonal phage supernatant) [Phage-3585 (Peptide-180 library clone)]
A: 1.61
